TEST_SYSTEM: T1, hu-IL-36γ (human IL-36γ, N-terminally truncated active form S18-D169) (human, UniProt Q9NZH8 18-169)
T1 construct: Purification tag cleaved off; Biotinylated where captured; also called hu-IL-36g
T1 sequence: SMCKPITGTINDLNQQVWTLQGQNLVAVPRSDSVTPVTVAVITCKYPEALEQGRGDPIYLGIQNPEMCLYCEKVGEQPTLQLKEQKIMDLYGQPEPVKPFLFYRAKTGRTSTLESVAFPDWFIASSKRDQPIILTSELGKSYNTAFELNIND
EXPERIMENT_SUMMARY: phage competition ELISA: Fab on phage, soluble hu-IL-36γ titrated against coated hu-IL-36γ
Procedure: Selected phages with top binding signal were purified to perform phage competition ELISA. The optimal phage concentration was incubated with serially-diluted human IL-36α or human IL-36γ in ELISA buffer in NUNC F plate for two hours. 80 μL of the mixture was transferred to human IL-36α or human IL-36γ coated wells for 15 min to capture unbound phage. […] The absorbance at 450 nm was plotted as a function of antigen concentration in solution to determine phage IC50.
Parameter pIC50: see the listing below.
# reply with the number alone; pIC50 is -log10 of concentration in mol/L

Worked examples, 4 binders total:
1. mAb2.4 Fab (phage-displayed) (Fab, V domains shown) VH: ELQLQESGPGLVKPSETLSLTCTVSGGSISNSSYYWGWIRQPPGKGLEWIGSIYYTGNTYYLPSLKSRVTISVDTSKNQFSLKLSSVTAADTAVYYCARVRYGVGVPRYFDPWGQGTLVTVSS VL: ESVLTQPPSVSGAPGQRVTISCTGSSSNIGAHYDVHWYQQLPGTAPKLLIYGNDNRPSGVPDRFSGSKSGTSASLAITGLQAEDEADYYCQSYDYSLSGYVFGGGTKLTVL	8.82
2. mAb2.6 Fab (phage-displayed) (Fab, V domains shown) VH: ELQLQESGPGLVKPSETLSLTCTVSGGSISTSSYHWGWIRQPPGKGLEWIGSIYYTGNTYYMPSLKSRVTISVDTSKNQFSLKLSSVTAADTAVYYCVRVRYGVGVPRYFDPWGQGTLVTVSS VL: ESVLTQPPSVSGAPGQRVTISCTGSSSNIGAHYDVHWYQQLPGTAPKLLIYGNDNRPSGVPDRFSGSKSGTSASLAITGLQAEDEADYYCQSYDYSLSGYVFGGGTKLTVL	8.70
3. mAb2.7 Fab (phage-displayed) (Fab, V domains shown) VH: ELQLQESGPGLVKPSETLSLTCTVSGGSISRSSYYWGWIRQPPGKGLEWIGSIYYTGNTYYWPSLKSRVTISVDTSKNQFSLKLSSVTAADTAVYYCTRVRYGVGVPRYFDPWGQGTLVTVSS VL: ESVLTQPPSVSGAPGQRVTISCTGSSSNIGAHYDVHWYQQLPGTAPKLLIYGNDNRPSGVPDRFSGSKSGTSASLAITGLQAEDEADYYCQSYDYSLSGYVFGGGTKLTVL	8.82
4. mAb2.2 Fab (phage-displayed) (Fab, V domains shown) VH: ELQLQESGPGLVKPSETLSLTCTVSGGSISESSYYWGWIRQPPGKGLEWIGSIYYTGNTYYNPSLKSRVTISVDTSKNQFSLKLSSVTAADTAVYYCAGVRYGVGVPRYFDPWGQGTLVTVSS VL: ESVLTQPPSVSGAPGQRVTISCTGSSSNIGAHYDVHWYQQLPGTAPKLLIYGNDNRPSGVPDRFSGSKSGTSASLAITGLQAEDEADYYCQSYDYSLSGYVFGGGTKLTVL	8.42

Q. Any idea what its pIC50 is? The binder is mAb2.1 Fab (phage-displayed) (Fab, V domains shown) VH: ELQLQESGPGLVKPSETLSLTCTVSGGSISDSSYYWGWIRQPPGKGLEWIGSIYYTGNTYYNSSLKSRVTISVDTSKNQFSLKLSSVTAADTAVYYCARVRYGVGVPRYFDPWGQGTLVTVSS VL: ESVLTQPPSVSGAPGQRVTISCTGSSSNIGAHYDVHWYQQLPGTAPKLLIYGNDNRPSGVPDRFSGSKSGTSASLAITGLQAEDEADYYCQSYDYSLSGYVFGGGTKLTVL
A. 8.31
